src = the supplement of paper PMC10981050

Test system: MOLM14;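 also: after 48 h exposure read by CellTiter-Glo luminescence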
Test: cell viability relative to vehicle control; higher = less cytotoxic
Conditions: 10 µM; SRSF2 genotype: SRSF2 wt/wt
Where a name gives a salt, the structure may show the parent alone.
Reported property: cell viability (%)
Quick reminder: number only, in %, skip the unit.

# annotated cases, reported cell viability shown
In: Give the value of cell viability reported for the following: CCn1cc(C(=O)O)c(=O)c2c(N)c(F)c(NC3CCCCC3)cc21
Out: 117

In: Give the value of cell viability reported for the following: OCCc1ccc(O)c(O)c1 [Hydroxytyrosol]
Out: 104

In: Give the value of cell viability reported for the following: CNC(=C[N+](=O)[O-])NCCSCc1ccc(CN(C)C)o1 [Ranitidine Hydrochloride]
Out: 103

In: Give the value of cell viability reported for the following: O=C(O)CCC(=O)Nc1ccc(Br)cn1 [Bikinin]
Out: 106

In: Give the value of cell viability reported for the following: COc1nccc(-c2c(-c3ccc(F)cc3)ncn2C2CCC(O)CC2)n1 (configuration not stated)
Out: 107

---
In: Give the value of cell viability reported for the following: CCN(CC)CC(=O)Nc1c(C)cccc1C [Lidocaine hydrochloride]
Out: 102

In: Give the value of cell viability reported for the following: CC(C)(CO)c1cc2cc(NC(=O)C3(c4ccc5c(c4)OC(F)(F)O5)CC3)c(F)cc2n1C[C@@H](O)CO
Out: 91.7

In: Give the value of cell viability reported for the following: Cc1ncc(CCCN(C)C)cc1Nc1ncc2c(n1)-c1ccc(C(F)(F)F)cc1NC(=S)C2
Out: 8.47

In: Give the value of cell viability reported for the following: CN1CCc2c(c3ccccc3n2Cc2ccc(C(=O)NO)cc2)C1 [Tubastatin A hydrochloride]
Out: 43.6

In: Give the value of cell viability reported for the following: C=CC(=O)N1CC(=Cc2ccc([N+](=O)[O-])cc2)C(=O)C(=Cc2ccc([N+](=O)[O-])cc2)C1
Out: 0.74

In: Give the value of cell viability reported for the following: O=C1C[C@@H](c2ccc(O)c(O)c2)Oc2cc(O)cc(O)c21 [Eriodictyol]
Out: 104

In: Give the value of cell viability reported for the following: COc1cc(Nc2ncc3c(n2)-c2ccc(Cl)cc2C(c2c(F)cccc2OC)=NC3)ccc1C(=O)O [MLN8237 (Alisertib)]
Out: 17.7
